Data provenance is the supplement of paper PMC6555819.

Answer each item with its documented PBM binding z-score.
System: RARb homodimer (NR concentration 270 nM)
experiment summary: PBM binding z-score (relative to random genomic background probes); higher = stronger binding; sequences stand for … in GC…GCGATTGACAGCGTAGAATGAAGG
// response body must contain only the number

Exercise: Which PBM binding z-score value belongs to `ATCGAAAGGTCGAAGGTGAGAATACCCACCCGAA` ?
Key: 2.62

Exercise: Which PBM binding z-score value belongs to `CCTAGCAGGCCATGGTCACTCAAGCATTTCGCTT` ?
Key: 0.33

Exercise: Which PBM binding z-score value belongs to `CCTCGGAGGACAGAAGGACAGAGCTGTCCGCTTT` ?
Key: 0.278

Exercise: Which PBM binding z-score value belongs to `CCTACTGGGCCATTCGGAGGTCATTGATCATATG` ?
Key: 3.37

Exercise: Which PBM binding z-score value belongs to `CCTGCTAAGTCATGGTCAGCTAATCTACAGTATG` ?
Key: 0.142

Exercise: Which PBM binding z-score value belongs to `CGAACTAGGTCAGAACACGACAGTGAAGGATGAT` ?
Key: 1.84
